Target: aminopeptidase A (APA) (Rattus norvegicus, UniProt P50123)
Construct: These cells express high levels of APA and γ-GT activities and can be used to measure kinetics in living cells; endogenous in cells; host or cells: EC219 rat brain-derived endothelial cells
Sequence (P50123 whole entry): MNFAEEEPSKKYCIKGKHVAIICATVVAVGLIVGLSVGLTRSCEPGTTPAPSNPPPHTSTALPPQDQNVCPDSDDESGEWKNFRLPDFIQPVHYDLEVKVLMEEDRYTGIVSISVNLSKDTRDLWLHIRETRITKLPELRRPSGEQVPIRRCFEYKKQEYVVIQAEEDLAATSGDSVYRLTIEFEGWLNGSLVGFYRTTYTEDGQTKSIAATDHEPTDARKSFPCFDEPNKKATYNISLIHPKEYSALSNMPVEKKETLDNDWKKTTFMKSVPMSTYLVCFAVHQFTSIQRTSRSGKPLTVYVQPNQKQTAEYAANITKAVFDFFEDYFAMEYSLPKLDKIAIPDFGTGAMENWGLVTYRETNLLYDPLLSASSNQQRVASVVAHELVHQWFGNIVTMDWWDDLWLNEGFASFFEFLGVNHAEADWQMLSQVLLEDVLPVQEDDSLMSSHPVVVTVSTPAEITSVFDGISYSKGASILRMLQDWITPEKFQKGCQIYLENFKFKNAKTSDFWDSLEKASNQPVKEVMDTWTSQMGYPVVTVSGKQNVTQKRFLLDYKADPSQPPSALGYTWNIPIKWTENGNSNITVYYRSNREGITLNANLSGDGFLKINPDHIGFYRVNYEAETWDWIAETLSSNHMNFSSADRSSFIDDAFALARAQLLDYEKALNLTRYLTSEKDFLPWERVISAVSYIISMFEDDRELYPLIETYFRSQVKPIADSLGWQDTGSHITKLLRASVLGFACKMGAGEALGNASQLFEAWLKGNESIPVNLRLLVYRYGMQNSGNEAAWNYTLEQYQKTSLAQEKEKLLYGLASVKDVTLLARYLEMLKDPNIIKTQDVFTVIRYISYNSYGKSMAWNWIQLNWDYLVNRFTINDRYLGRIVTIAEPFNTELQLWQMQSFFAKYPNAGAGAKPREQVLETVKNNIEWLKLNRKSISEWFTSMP
Test: APA enzymatic activity in intact living EC219 cells (α-Glu-AMC substrate)
Format: cell-based
Conditions: intact living EC219 cells, 40 µM α-Glu-AMC; read-out: IC50 APA
measured property: IC50

[[record]]
compound_structure = "CC(C)C[C@@H](N)[C@H](O)C(=O)N[C@H](C(=O)N[C@H](C(=O)N[C@@H](CC(=O)O)C(=O)O)C(C)C)C(C)C"
value = "< 1000 nM"

